Tested on: MDA-MB-468 breast
Assay: NCI tumour cell line growth inhibition, 48 h
*1 amine or outer side, *2 acyl side, *3 side chain or, on linkers, in order; H or OH if unused. Where a SMILES comes first, the peptide text is derived from it. Bridges are numbered along the chain shown (N, C = ends). [ ]: non-standard residue; d: D form. The star is where a group is joined. Phe(3,5-F2) = N[C@@H](Cc1cc(F)cc(F)c1)C(=O)O; Pro(4R-Me) = C[C@H]1CN[C@H](C(=O)O)C1; aThr = C[C@H](O)[C@H](N)C(=O)O; Pip = O=C(O)[C@@H]1CCCCN1; X10 = Fc1cc(C2CC2)ccc1N*; Abu = CC[C@H](N)C(=O)O; CO = O=C([*:1])[*:2]
Returns one of Yes or No; Yes when TGI is >= 4 µM.

* CC[C@@H]1NC(=O)[C@@H]2CCCCN2C(=O)[C@@H]2CCCN2C(=O)[C@@H](NC(=O)[C@H](Cc2cc(F)cc(F)c2)NC(=O)Nc2ccc(C3CC3)cc2F)[C@H](C)OC(=O)[C@@H]2C[C@@H](C)CN2C1=O ({X10-CO}-[Phe(3,5-F2)][aThr]P[Pip][Abu][Pro(4R-Me)]; ester 2-C) | No
* O=C(Nc1ccc(Oc2cccc(Cl)c2)c(Cl)c1)c1cnccn1 | Yes
* COc1cc(Cn2c(C(F)(F)F)cc3c(Cl)ncnc32)ccn1 | No

Ask | Could you tell me if the measured TGI of CCn1cc(C(=O)N/N=C/c2ccc(Br)cc2)c(=O)c2cc(F)c(N3CCNC(C)C3)c(F)c21 (stereo not given) reaches 4 µM or more?
Reply | No

Ask | Could you tell me if the measured TGI of `Cc1nc2ccccc2c(/C=C/c2ccc(Cl)cc2)c1C(=O)/C=C/c1ccc(F)cc1` reaches 4 µM or more?
Reply | No

// data source = PubChem BioAssay (NCI)
